Test system: KM20L2 colon
Assay text: NCI tumour cell line growth inhibition, 48 h
Observable: TGI

Prompt: Entry O=C(NN1C(=O)C(Cl)C1c1ccc([N+](=O)[O-])cc1)c1ccccc1O (stereo not given) has what TGI?
Response: > 100 µM

Prompt: Entry [N-]=[N+]=NC(c1cn(C2CC(O)C(CO)O2)c(=O)[nH]c1=O)C(I)I (stereo not given) has what TGI?
Response: > 100 µM

Prompt: Entry `O=c1cc(-c2ccc[nH]2)[nH]c2cc3c(cc12)OCO3` has what TGI?
Response: 42.6 µM

Prompt: Entry `Oc1cccc2nc3cc(CN4CCOCC4)c(CN4CCOCC4)cc3nc12` has what TGI?
Response: > 100 µM

Prompt: Entry `CN(Cc1ccccc1)c1nc(=[N+](C)C)ss1` has what TGI?
Response: > 100 µM

Prompt: Entry `CC(=O)NNc1nc(C)c(C(/C=C/c2ccc(Cl)cc2)=N/NC(=S)NN)s1` has what TGI?
Response: > 100 µM

Prompt: Entry CC(=O)OC1C/C(C)=C/[C@H](O)CC(C)/C=C/[C@@]2(C)CCC(C(C)(C)O)C12 (stereo not given in full) has what TGI?
Response: > 100 µM

Prompt: Entry `Cc1ccc(C(=O)NC(C)C)cc1N=NN(C)C` has what TGI?
Response: > 100 µM

Prompt: Entry COC(=O)C(C(=O)C(=O)Nc1ccc(C)cc1C)c1nc2ccc([N+](=O)[O-])cc2[nH]c1=O (stereo not given) has what TGI?
Response: > 100 µM

Prompt: Entry CN(C(=O)C1CC1)C1C2CN3CCC(O2)C13 (stereo not given) has what TGI?
Response: > 100 µM

Prompt: Entry `CC(=O)[CH-]C(=O)c1ccccc1.CC(=O)[CH-]C(=O)c1ccccc1.CC[O-].O=C1C=C([O-])C(=O)c2ccccc21.[Ti+4]` has what TGI?
Response: > 100 µM

Prompt: Entry `Cc1cc(C)c(N)c(C)c1N` has what TGI?
Response: > 100 µM

Prompt: Entry COc1ccc(CC(C#N)c2cc(OC)c(OC)c(OC)c2)cc1 (stereo not given) has what TGI?
Response: 0.195 µM

Prompt: Entry `C=CC[C@@]1(C#N)C[C@H](C[C@]2(C#N)C[C@H](CCl)OC(C)(C)O2)OC(C)(C)O1` has what TGI?
Response: > 100 µM

Prompt: Entry `O=C(O)C1=C(Cl)c2ccccc2S1(=O)=O` has what TGI?
Response: > 100 µM

Prompt: Entry `NC(=O)N/N=C1/CCCC/C1=C\c1ccccc1` has what TGI?
Response: > 100 µM

Prompt: Entry CC1=NN(C(=O)c2ccccc2)C(=O)C1N=Nc1ccccc1C(=O)O (stereo not given) has what TGI?
Response: > 100 µM

Prompt: Entry O=C(Cc1ccccc1)NN1C(=O)C(Cl)C1c1ccccc1 (stereo not given) has what TGI?
Response: > 100 µM

Prompt: Entry CCN1CCC(O)(c2ccc(Cl)c(Cl)c2)C(C(=O)c2ccc(Cl)c(Cl)c2)C1 (stereo not given) has what TGI?
Response: 36.6 µM

Prompt: Entry O/N=C1/C(=C/c2ccccc2)CCCC1C(NO)c1ccccc1 (stereo not given) has what TGI?
Response: > 100 µM

###

System: MCF7 breast
Assay text: NCI tumour cell line growth inhibition, 48 h; in the data active = GI50 below about 0.43 µM; inactive = the rest
Outcomes you can answer with include only these: active, inactive

Prompt: State the result this test recorded for `COc1ccc(Cn2c3c(c4c(O)cccc42)C(=O)c2ccccc2-3)cc1` .
Response: inactive

Prompt: State the result this test recorded for `O=C1C(Nc2cccc(O)c2)=C(Sc2ccc(Cl)cc2)C(=O)N1Cc1ccccc1` .
Response: inactive

Prompt: State the result this test recorded for `CN1CCN(c2ccc([N+](=O)[O-])c3no[n+]([O-])c23)CC1` .
Response: active

Prompt: State the result this test recorded for `CN(C)CCC(=O)NCc1c2nc3ccccc3nc2n2ccccc12` .
Response: inactive

Prompt: State the result this test recorded for `CO[C@H]1/C=C/C[C@H](C)[C@@H](C)S(=O)(=O)NC(=O)c2ccc3c(c2)N(C[C@@H]2CC[C@H]21)C[C@@]1(CCCc2cc(Cl)ccc21)CO3` .
Response: inactive

Prompt: State the result this test recorded for `CC(C)[C@H](O)C(=O)N[C@H]1Cc2ccc3c(c2)[C@]24C5=C(N=C(O5)[C@H](C(C)C)NC1=O)c1nc(Cl)c(o1)-c1c(Cl)[nH]c5cccc(c15)-c1cccc2c1N[C@H]4O3` .
Response: active

Prompt: State the result this test recorded for `Cc1[nH]ccc2cc3nc4ccccc4c3cc12` .
Response: inactive

Prompt: State the result this test recorded for `Cc1ccc(C(=O)Nc2ccccc2C(=O)N/N=C(\c2ccccc2)c2ccccn2)cc1` .
Response: active

Prompt: State the result this test recorded for `Cc1cc(S(=O)(=O)Nc2nc3ccsc3c(=O)n2Cc2ccccc2)c(S)cc1Cl` .
Response: inactive

###

Assignment: determine reported TGI for the given compounds.
Tested on: SW-620 colon
Assay text: NCI tumour cell line growth inhibition, 48 h

Prompt: Entry O=C(Nc1ccc(Cl)cc1)c1cc(S(=O)(=O)NC2=NC(c3ccccc3)c3cc(Cl)ccc3N2)c(SSc2cc(Cl)c(C(=O)Nc3ccc(Cl)cc3)cc2S(=O)(=O)NC2=NC(c3ccccc3)c3cc(Cl)ccc3N2)cc1Cl (centres undefined) has what TGI?
Response: > 100 µM

Prompt: Entry `C/C=C/COc1cc(NC(=S)c2ccoc2C)ccc1OC` has what TGI?
Response: > 100 µM

Prompt: Entry `CN(/C(=N\O)c1ccccc1)c1ccccc1` has what TGI?
Response: > 100 µM

Prompt: Entry `COC(=O)Nc1nc2ccc(NS(=O)(=O)c3ccc(F)cc3)cc2[nH]1` has what TGI?
Response: > 100 µM

###

Test system: HOP-92 NSCLC
Assay text: NCI tumour cell line growth inhibition, 48 h
Observable: log10(TGI) (log10 of the value in µM)
The base-10 logarithm of TGI, taken with TGI in µM, is what appears here.

Prompt: Entry `CCOc1ccc(C(c2c(O)c3ccccc3oc2=O)c2c(O)c3ccccc3oc2=O)cc1` has what log10(TGI)?
Response: 1.81

Prompt: Entry `COc1ccc(NCc2c(O)ccc3ccccc23)cc1` has what log10(TGI)?
Response: 1.47

Prompt: Entry `Cc1cc(NS(=O)(=O)c2ccc(NC(=O)c3cccc4c(NNc5ccc(S(N)(=O)=O)cc5)c5ccccc5nc34)cc2)no1` has what log10(TGI)?
Response: 1.91

Prompt: Entry `CN1CCN(c2ccc([N+](=O)[O-])c3no[n+]([O-])c23)CC1` has what log10(TGI)?
Response: 0.08

Prompt: Entry COC(=O)C1(Cc2ccc3c(c2)CCC3)Cc2cc3c(cc2C1=O)CCC3 (stereo unspecified) has what log10(TGI)?
Response: 1.63

Prompt: Entry CCCCCCCCCCOC1C(C(C)OCCCN(C)C)OC2OC3(CCCCC3)OC21 (stereo unspecified) has what log10(TGI)?
Response: 1.21

Prompt: Entry `COc1cccc2cc(N(C)c3nc(C)nc4ccsc34)ccc12` has what log10(TGI)?
Response: 0.34

Prompt: Entry CC(=O)O[C@@H]1CC2[C@@H](CCC3Cc4nc5c(nc4C[C@@]32C)CC2CC[C@@H]3C(CC[C@@]4(C)C3CC[C@@H]4C(C)CCCC(C)C)[C@@]2(C)C5)C2C[C@@H]3OC4(CCC(C)CO4)C(C)[C@@H]3[C@]21C (stereo partly specified) has what log10(TGI)?
Response: 1.85

Prompt: Entry `CC(C)(C)n1cc(-c2ccnc(NCCCNS(=O)(=O)c3ccc(Cl)cc3)c2)c(-c2cccc(O)c2)n1` has what log10(TGI)?
Response: 0.52

Prompt: Entry `c1ccc([P+](CCC[P+](c2ccccc2)(c2ccccc2)c2ccccc2)(c2ccccc2)c2ccccc2)cc1` has what log10(TGI)?
Response: 1.91

Prompt: Entry CCCCCCCCCCCCCCCCCCOCC1(COP(=O)([O-])OCC[N+](C)(C)C)CCCO1 (stereo unspecified) has what log10(TGI)?
Response: 0.78

Prompt: Entry `O=C1c2c(O)cccc2C(C(=O)CCCC(=O)C2c3cccc(O)c3C(=O)c3c(O)cccc32)c2cccc(O)c21` has what log10(TGI)?
Response: 0.00

Prompt: Entry CCC[CH2][Sn]1([CH2]CCC)[O]CC([CH2][Sn]([c]2ccccc2)([c]2ccccc2)[c]2ccccc2)[O]1 (stereo unspecified) has what log10(TGI)?
Response: 1.41

Prompt: Entry `O=C(/C=C\c1ccc(OCCCCCC[P+](c2ccccc2)(c2ccccc2)c2ccccc2)cc1)c1ccc2c(c1)OCCO2` has what log10(TGI)?
Response: 0.45

Prompt: Entry `COC(=O)C[C@](O)(CCC(C)(C)O)C(=O)O[C@@H]1C(OC)=C[C@]23CCCN2CCc2cc4c(cc2[C@H]13)OCO4` has what log10(TGI)?
Response: -0.19

Prompt: Entry `CCOc1ccc(-n2c(=O)n3c(Nc4ccc(Cl)cc4)nc4c(c(=O)n(C)c(=O)n4C)n3c2=O)cc1` has what log10(TGI)?
Response: 1.68

Prompt: Entry `Cc1ccc(-c2nc3n(c2/C=N\N=C(N)N)CCS3)cc1` has what log10(TGI)?
Response: 1.53

Prompt: Entry CCCCCCCCCCC(CN(CC)CC)C(O)c1ccccc1 (stereo unspecified) has what log10(TGI)?
Response: 0.47

Prompt: Entry COc1cc(C2c3cc4c(cc3[C@@H](Nc3ccc(N5CCOCC5)cc3)C3COC(=O)[C@H]23)OCO4)cc(OC)c1O (stereo partly specified) has what log10(TGI)?
Response: 0.94

Prompt: Entry `Nc1ccc(S(=O)(=O)c2ccc(N=[N+]([O-])c3ccc(S(=O)(=O)c4ccc(N)cc4)cc3)cc2)cc1` has what log10(TGI)?
Response: 1.58
